# method_summary: Lipophilicity (log P)
# Format: physicochemical
# condition: octanol/water

| compound | logP |
| --- | --- |
| CN(C)c1ccc(/C=C/c2nc3ccc(OCC[18F])cc3s2)cn1 [^18F-7B] | 1.3 |

====

# system: AD homogenates (Homo sapiens, UniProt P05067)
# Sequence (P05067 672-711 limits assumed): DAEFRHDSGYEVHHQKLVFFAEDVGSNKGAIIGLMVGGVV
# method_summary: Saturation radioligand binding to AD brain homogenates (insoluble fraction)
# condition: saturable specific binding, one-site model; nonspecific binding with 7A (5 μM)

| compound | Kd |
| --- | --- |
| CN(C)c1ccc(/C=C/c2nc3ccc(OCC[18F])cc3s2)cn1 [^18F-7B] | 17.7 nM |
